The reported numbers originate from patent US20230381328A1.

relative signal [%] for assorted substances
tested on: myasthenogenic antibody mAB 198; assay: Peptide microarray mimotope screen, binding of mAB 198 to linear and cyclic peptides (fluorescence readout); set-up: species or system rat; conditions: linear mimotopes; binding of mAB 198, relative fluorescent signal after normalization against background

{"columns": ["substance", "relative signal [%]"],
 "data": [
  ["37 (QWIDVRLRYNP) [compound 37]", "13.4%"],
  ["9 (LRVNPADYG) [compound 9]", "31.6%"],
  ["14 (VRLRRNPAD) [compound 14]", "25.0%"],
  ["4 (VRLRWNPADYP) [compound 4]", "56.7%"],
  ["17 (NPDDYHG) [compound 17]", "21.3%"],
  ["43 (IDVRLRYNP) [compound 43]", "12.2%"],
  ["86 (DVRLRWNPSDY) [compound 86]", "6.8%"],
  ["2 (NPADYRG) [compound 2]", "71.4%"],
  ["39 (GGGSLRFNP) [compound 39]", "13.0%"],
  ["38 (RGNPADYGG) [compound 38]", "13.0%"],
  ["64 (WRLRWNPAD) [compound 64]", "9.0%"],
  ["30 (LRWNPADYH) [compound 30]", "15.3%"],
  ["78 (VDYNLKFNP) [compound 78]", "7.6%"],
  ["25 (LRLNPADYG) [compound 25]", "17.3%"],
  ["59 (GSLRRNPAD) [compound 59]", "9.5%"],
  ["92 (NPADYGN) [compound 92]", "6.5%"],
  ["18 (NPADYGY) [compound 18]", "21.2%"],
  ["57 (RRNPADY) [compound 57]", "9.9%"],
  ["85 (VDCNLKFNP) [compound 85]", "6.8%"],
  ["41 (RWNPADF) [compound 41]", "12.6%"],
  ["53 (LRWNPADYGGF) [compound 53]", "10.6%"],
  ["47 (WNPDDYR) [compound 47]", "11.4%"],
  ["93 (LRWNPADYPGI) [compound 93]", "6.5%"],
  ["35 (YNLKFNP) [compound 35]", "13.7%"],
  ["97 (LRPNPADYG) [compound 97]", "6.1%"],
  ["83 (RLRGNPADY) [compound 83]", "6.9%"],
  ["51 (QWVDYNLKFNP) [compound 51]", "10.9%"],
  ["66 (RHNPADY) [compound 66]", "8.9%"],
  ["42 (RLRWNPADYHG) [compound 42]", "12.4%"],
  ["44 (RINPADY) [compound 44]", "12.2%"],
  ["95 (SLRFNPADY) [compound 95]", "6.5%"],
  ["7 (LRFNPAD) [compound 7]", "37.1%"],
  ["36 (SLHWNPADY) [compound 36]", "13.6%"],
  ["87 (RIRWNPADY) [compound 87]", "6.8%"],
  ["69 (DVRLRINPADY) [compound 69]", "8.5%"],
  ["77 (YNLPWNP) [compound 77]", "7.6%"],
  ["3 (NPADYHG) [compound 3]", "59.3%"]
]}

###

relative signal [%] for assorted substances
tested on: myasthenogenic antibody mAB 198; assay: Peptide microarray mimotope screen, binding of mAB 198 to linear and cyclic peptides (fluorescence readout); set-up: species or system rat; conditions: linear mimotopes; binding of mAB 198, relative fluorescent signal after normalization against background
measure: relative signal [%] (%)

{"columns": ["substance", "measure", "value.observed"],
 "data": [
  ["84 (RGNPADY) [compound 84]", "relative signal [%]", 6.9],
  ["32 (RLRVNPADY) [compound 32]", "relative signal [%]", 14.9],
  ["60 (WNPADYH) [compound 60]", "relative signal [%]", 9.4],
  ["76 (VPLRWNPAD) [compound 76]", "relative signal [%]", 7.6]
]}
